Target: SHP2 C-SH2^E139D domain (Homo sapiens, UniProt Q06124, E139D)
Construct: SHP2 SH2 domains were cloned into a His6-SUMO-SH2-Avi construct; His6-SUMO (N, cleaved yes); made in house; host or cells: E. coli C43(DE3), co-expressed with BirA
Sequence (Q06124 112-216 E139D limits assumed): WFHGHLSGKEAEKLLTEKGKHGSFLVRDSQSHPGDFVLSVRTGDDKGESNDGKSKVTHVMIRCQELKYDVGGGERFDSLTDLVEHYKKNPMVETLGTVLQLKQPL
Test: SH2 specificity profiling by bacterial peptide display (Human pTyr and pTyr-Var Libraries), C-SH2 E139D
Assay type: binding
Settings: bacterial peptide display; frequency in enriched sample / input; average, Human pTyr Library N = 3, pTyr-Var Library N = 2
No end group written: not given here.
readout-type: C-E139D-Ave (enrichment score)
Answer as a number with no unit attached.

ordered_residues="MKGDYYRYLAEVATG (also: phosphorylated, site not given here) [1433G_HUMAN_133]" target_desc="SHP2 C-SH2^E139D domain (Homo sapiens, UniProt Q06124, E139D)" readout_type="C-E139D-Ave (enrichment score)" quantitative_result=0.8393
ordered_residues="MKGDYHRYLAEFATG (also: phosphorylated, site not given here) [1433E_HUMAN_131]" target_desc="SHP2 C-SH2^E139D domain (Homo sapiens, UniProt Q06124, E139D)" readout_type="C-E139D-Ave (enrichment score)" quantitative_result=0.911
ordered_residues="MKGDAHRYLAEFATG (bacterially displayed) [1433E_HUMAN_131_YA]" target_desc="SHP2 C-SH2^E139D domain (Homo sapiens, UniProt Q06124, E139D)" readout_type="C-E139D-Ave (enrichment score)" quantitative_result=0.7738

Attention now turns to another entry.
Please report the recorded C-E139D-Ave (enrichment score) for SDRKGGSYTQAASSD (also: phosphorylated, site not given here) [1A01_HUMAN_344] .
0.8092

* * *

We begin with a simple list: items and their reported C-WT-Ave (enrichment score).
Target: SHP2 C-SH2^WT domain (Homo sapiens, UniProt Q06124)
Construct: SHP2 SH2 domains were cloned into a His6-SUMO-SH2-Avi construct; His6-SUMO (N, cleaved yes); made in house; host or cells: E. coli C43(DE3), co-expressed with BirA
Sequence (Q06124 112-216 limits assumed): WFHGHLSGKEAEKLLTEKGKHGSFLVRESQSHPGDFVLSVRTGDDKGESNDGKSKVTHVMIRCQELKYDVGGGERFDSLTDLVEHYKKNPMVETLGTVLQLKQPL
Assay: SH2 specificity profiling by bacterial peptide display (Human pTyr and pTyr-Var Libraries), C-SH2 WT
Format: binding
Conditions: bacterial peptide display; frequency in enriched sample / input; average, Human pTyr Library N = 3, pTyr-Var Library N = 2
No end group written: not given here.

ordered_residues="SDRKGGSYTQAASSD (also: phosphorylated, site not given here) [1A01_HUMAN_344]" result=0.7595

Please report the recorded C-WT-Ave (enrichment score) for MKGDYHRYLAEFATG (also: phosphorylated, site not given here) [1433E_HUMAN_131] .
0.8786

Please report the recorded C-WT-Ave (enrichment score) for MKGDAHRYLAEFATG (bacterially displayed) [1433E_HUMAN_131_YA] .
0.6613

Please report the recorded C-WT-Ave (enrichment score) for MKGDYYRYLAEVATG (also: phosphorylated, site not given here) [1433G_HUMAN_133] .
0.777

Please report the recorded C-WT-Ave (enrichment score) for MKGDAARYLAEVATG (bacterially displayed) [1433G_HUMAN_133_YA] .
0.8982

* * *

Biological target: full-length SHP2^T42A (Homo sapiens, UniProt Q06124, T42A)
Construct: Full-length SHP2 constructs were diluted in assay buffer; His6-TEV (N, cleaved yes)
Assay: SHP2 activation assay using phosphopeptides (DiFMUP), SHP2 T42A
Conditions: activation of full-length SHP2 T42A (0.05 nM) by phosphopeptide; DiFMUP substrate; HEPES pH 7.2 assay buffer; mean of N (column N)
readout-type: EC50 (nM)
Just the number in nM, nothing appended.

Example molecules with recorded EC50:
molecule=CSCC[C@H](NC(=O)[C@H](CC(C)C)NC(=O)[C@H](CCC(N)=O)NC(=O)[C@H](C)NC(=O)[C@H](Cc1ccc(OP(=O)(O)O)cc1)NC(=O)[C@H](CC(N)=O)NC(=O)[C@H](CC(C)C)NC(=O)[C@H](C)NC(=O)[C@H](C)NC(=O)[C@H](CCCCN)NC(=O)[C@H](CCCCN)NC(C)=O)C(=O)N[C@@H](Cc1ccccc1)C(=O)N1CCC[C@H]1C(N)=O readout_type=EC50 quantitative_result=735
molecule=CC(=O)N[C@@H](CO)C(=O)N[C@H](C(=O)NCC(=O)N[C@@H](CO)C(=O)N[C@H](C(=O)N[C@@H](CC(=O)O)C(=O)N[C@@H](Cc1ccc(OP(=O)(O)O)cc1)C(=O)N[C@@H](CC(C)C)C(=O)N[C@@H](C)C(=O)N[C@@H](CC(C)C)C(=O)N[C@@H](CC(=O)O)C(=O)N[C@@H](Cc1ccccc1)C(=O)N[C@@H](CCC(N)=O)C(N)=O)C(C)C)[C@@H](C)O readout_type=EC50 quantitative_result=902

Attention now turns to another entry.
Please report the recorded EC50 for `CC[C@H](C)[C@H](NC(=O)[C@@H](NC(=O)[C@H](C)NC(=O)[C@H](Cc1ccc(OP(=O)(O)O)cc1)NC(=O)[C@H](CCC(=O)O)NC(=O)[C@@H](NC(=O)[C@H](CCC(N)=O)NC(=O)[C@H](CCC(=O)O)NC(=O)[C@@H]1CCCN1C(=O)[C@@H](NC(C)=O)C(C)C)[C@@H](C)O)[C@@H](C)O)C(=O)N[C@H](C(=O)N[C@@H](Cc1ccccc1)C(=O)N1CCC[C@H]1C(N)=O)C(C)C` .
880

* * *

Molecular target: full-length SHP2^WT (Homo sapiens, UniProt Q06124)
Construct: Full-length SHP2 constructs were diluted in assay buffer; His6-TEV (N, cleaved yes)
Assay: SHP2 activation assay using phosphopeptides (DiFMUP), SHP2 WT
Conditions: activation of full-length SHP2 WT (0.05 nM) by phosphopeptide; DiFMUP substrate; 60 mM HEPES pH 7.2, 75 mM KCl, 75 mM NaCl, 1 mM EDTA, 0.05% Tween-20, 0.5 mM TCEP; fluorescence read every 25 s for 6 min; mean of N (column N)
readout-type: pEC50
Quick note: pEC50 values are minus log10 of concentrations in mol/L.

Example compounds with recorded pEC50:
molecule=CC(=O)NCC(=O)N[C@@H](CC(=O)O)C(=O)N[C@@H](CCCCN)C(=O)N[C@@H](CCC(N)=O)C(=O)N[C@H](C(=O)N[C@@H](CCC(=O)O)C(=O)N[C@@H](Cc1ccc(OP(=O)(O)O)cc1)C(=O)N[C@@H](CC(C)C)C(=O)N[C@@H](CC(=O)O)C(=O)N[C@@H](CC(C)C)C(=O)N[C@@H](CC(=O)O)C(=O)N[C@@H](CC(C)C)C(=O)N[C@@H](CC(=O)O)C(N)=O)C(C)C quantitative_result=4.58
molecule=CC(=O)N1CCC[C@H]1C(=O)N[C@H](C(=O)N[C@@H](Cc1ccccc1)C(=O)N[C@@H](CO)C(=O)N[C@H](C(=O)N[C@@H](CC(=O)O)C(=O)N[C@@H](Cc1ccc(OP(=O)(O)O)cc1)C(=O)NCC(=O)N[C@@H](CCC(=O)O)C(=O)N[C@@H](CC(C)C)C(=O)N[C@@H](CC(=O)O)C(=O)N[C@@H](Cc1ccccc1)C(=O)N[C@@H](CCC(N)=O)C(N)=O)C(C)C)C(C)C quantitative_result=4.72
molecule=CSCC[C@H](NC(=O)[C@H](CC(C)C)NC(=O)[C@H](CCC(N)=O)NC(=O)[C@H](C)NC(=O)[C@H](Cc1ccc(OP(=O)(O)O)cc1)NC(=O)[C@H](CC(N)=O)NC(=O)[C@H](CC(C)C)NC(=O)[C@H](C)NC(=O)[C@H](C)NC(=O)[C@H](CCCCN)NC(=O)[C@H](CCCCN)NC(C)=O)C(=O)N[C@@H](Cc1ccccc1)C(=O)N1CCC[C@H]1C(N)=O quantitative_result=5.88
molecule=CC[C@H](C)[C@H](NC(=O)[C@H](CC(=O)O)NC(=O)[C@H](C)NC(=O)[C@H](Cc1ccc(OP(=O)(O)O)cc1)NC(=O)[C@H](CCCCN)NC(=O)[C@@H](NC(=O)[C@H](CC(=O)O)NC(=O)CNC(=O)[C@H](CCCCN)NC(=O)[C@H](CCSC)NC(C)=O)C(C)C)C(=O)N[C@@H](CCC(=O)O)C(=O)N[C@@H](CO)C(=O)N[C@@H](CO)C(N)=O quantitative_result=4.04
molecule=CC(=O)N[C@@H](C)C(=O)N[C@@H](CCCCN)C(=O)N[C@@H](CO)C(=O)NCC(=O)N[C@@H](C)C(=O)N[C@H](C(=O)N[C@@H](Cc1ccc(OP(=O)(O)O)cc1)C(=O)N[C@@H](CO)C(=O)N[C@@H](CCC(=O)O)C(=O)N[C@@H](CC(C)C)C(=O)N[C@@H](CC(N)=O)C(=O)N[C@@H](Cc1ccccc1)C(=O)NCC(N)=O)C(C)C quantitative_result=3.63
molecule=CC[C@H](C)[C@H](NC(=O)[C@@H](NC(=O)[C@H](C)NC(=O)[C@H](Cc1ccc(OP(=O)(O)O)cc1)NC(=O)[C@@H](NC(=O)[C@@H]1CCCN1C(=O)[C@H](CCC(=O)O)NC(=O)[C@@H]1CCCN1C(=O)[C@H](CO)NC(=O)[C@H](C)NC(C)=O)[C@@H](C)CC)[C@@H](C)O)C(=O)N[C@@H](CC(=O)O)C(=O)N[C@@H](Cc1ccccc1)C(=O)N[C@@H](CC(=O)O)C(N)=O quantitative_result=5.55

Could you share what pEC50 was measured for `CC[C@H](C)[C@H](NC(=O)[C@@H](NC(=O)[C@H](C)NC(=O)[C@H](Cc1ccc(OP(=O)(O)O)cc1)NC(=O)[C@@H](NC(=O)[C@@H]1CCCN1C(=O)[C@H](CCC(=O)O)NC(=O)[C@@H]1CCCN1C(=O)[C@H](CO)NC(=O)[C@@H](NC(C)=O)C(C)C)[C@@H](C)CC)[C@@H](C)O)C(=O)N[C@@H](CC(=O)O)C(=O)N[C@@H](CC(=O)O)C(=O)N[C@@H](CC(C)C)C(N)=O` , tested on full-length SHP2^WT (Homo sapiens, UniProt Q06124)?
4.40
